assay: in vitro; settings: African green monkey, Vero E6 Cytotoxicity (IC50), MTT
Measured pIC50 by item
Worth noting: pIC50 values are minus log10 of concentrations stated in mol/L.

• CCOc1ccc(C2C(C#N)=C(N)Oc3c2c(C)nn3-c2ccc(Cl)cc2)cc1 (stereo not shown) [Compound 31] = 4.74
• COc1ccc(C2C(C#N)=C(N)Oc3c2c(C)nn3-c2ccc(Cl)cc2)cc1 (stereo not shown) [Compound 21] = 4.11

Now take the following molecule into account.
Q: Could you tell me which pIC50 is on file for Cc1nn(-c2ccc(Cl)cc2)c2c1C(c1ccc([N+](=O)[O-])cc1)C(C#N)=C(N)O2 (stereo not shown) [Compound 23] ?
Result: 3.95

====

experiment: in vitro; details: African green monkey, Vero E6 Cytotoxicity (IC50), MTT
Catalogue of pIC50 readings, one per entry.
As a rule, pIC50 stands for the negative log10 of the concentration, concentration in M.

Example compounds with recorded pIC50:
- CCC(CC)COC(=O)[C@H](C)N[P@](=O)(OC[C@H]1O[C@@](C#N)(c2ccc3c(N)ncnn23)[C@H](O)[C@@H]1O)Oc1ccccc1 [Remdesivir, reference compound]: 4.21
- Cc1nn(-c2ccc(Cl)cc2)c2c1C(c1ccc(Cl)cc1)C(C#N)=C(N)O2 (stereo not shown): 4.22
- Cc1nn(-c2ccc(Cl)cc2)c2c1C(c1ccc(Br)cc1)C(C#N)=C(N)O2 (stereo not shown): 4.58
- Cc1nn(-c2ccc(Cl)cc2)c2c1C(c1ccc(Cl)c(Cl)c1)C(C#N)=C(N)O2 (stereo not shown): 4.18
- Cc1nn(-c2ccc(Cl)cc2)c2c1C(c1c(Cl)cccc1Cl)C(C#N)=C(N)O2 (stereo not shown): 4.20

Note: attention shifts to another entry.
Q: Quick one: pIC50 of Cc1nn(-c2ccc(Cl)cc2)c2c1C(c1cc(Cl)ccc1Cl)C(C#N)=C(N)O2 (stereo not shown) ?
Result: 3.88

====

biological target: SARS-CoV-2 M^pro (Severe acute respiratory syndrome coronavirus 2); experiment: biochemical; settings: IC50 against SARS-CoV-2 M^pro, Table 1 and text
property: IC50 (µM)
Field format: number, assumed µM, no unit text.

Q: Name the recorded IC50 for Cc1nn(-c2ccc(Cl)cc2)c2c1C(c1c(Cl)cccc1Cl)C(C#N)=C(N)O2 (stereo not shown) [Compound 29] .
Result: 44.6

Q: Could you tell me which IC50 is on file for CCOc1ccc(C2C(C#N)=C(N)Oc3c2c(C)nn3-c2ccc(Cl)cc2)cc1 (stereo not shown) [Compound 31] ?
Result: 4.6

Q: Can you look up the measured IC50 of COc1cc(C2C(C#N)=C(N)Oc3c2c(C)nn3-c2ccc(Cl)cc2)cc(OC)c1OC (stereo not shown) [Compound 33] for me?
Result: 22.1

Q: Given Cc1nn(-c2ccc(Cl)cc2)c2c1C(c1ccc(F)cc1F)C(C#N)=C(N)O2 (stereo not shown) [Compound 25] , state its recorded IC50.
Result: 192

Q: Look at this compound and give its reported IC50. Cc1nn(-c2ccc(Cl)cc2)c2c1C(c1ccc(-c3ccccc3)cc1)C(C#N)=C(N)O2 (stereo not shown) [Compound 24]
Result: 39.8

Q: State the recorded IC50 for this entry: COc1ccc(C2C(C#N)=C(N)Oc3c2c(C)nn3-c2ccc(Cl)cc2)cc1 (stereo not shown) [Compound 21]
Result: 24.6
